# Target under test: IL-17A/F (Homo sapiens, UniProt Q16552+Q96PD4)
# Sequence (Q16552 24-155): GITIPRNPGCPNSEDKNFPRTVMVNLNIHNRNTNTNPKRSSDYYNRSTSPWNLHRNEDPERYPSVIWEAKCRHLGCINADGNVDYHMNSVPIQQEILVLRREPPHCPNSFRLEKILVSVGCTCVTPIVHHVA
# Sequence (Q96PD4 31-163): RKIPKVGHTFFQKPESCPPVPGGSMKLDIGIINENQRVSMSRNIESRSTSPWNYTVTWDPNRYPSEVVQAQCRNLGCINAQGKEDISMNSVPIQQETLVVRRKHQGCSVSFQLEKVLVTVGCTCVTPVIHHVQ
# Assay: IL-17A/F HEK-Blue cell assay (SEAP reporter)
# Recorded conditions: HEK-Blue IL-17A reporter cells, IL17A/F 5 ng/mL, 20 hours, SEAP read at A630; read-out: HEK-Blue IL17AF (IC50 for IL-17A/F inhibition)
Reported metric: IC50

Query :: // fetch IC50 given entry C[C@H]1CC[C@H]([C@H](NC(=O)C2(F)CC2)c2cn3nc(CC4C[C@@H](C(F)(F)F)CNC4=O)c(N4CCOCC4)nc3n2)CC1 (single isomer, unassigned) [Compound 120]
Result :: > 1000 nM

Query :: // fetch IC50 given entry CCn1nccc1C(=O)N[C@H](c1cn2nc(C[C@H]3C[C@@H](C(F)(F)F)CNC3=O)c(CN3CCC(C)(C)C3)nc2n1)C1CCC(F)(F)CC1 [Compound 342]
Result :: > 1000 nM

Query :: // fetch IC50 given entry CCn1nccc1C(=O)N[C@H](c1cn2nc(C[C@H]3C[C@@H](C(F)(F)F)CNC3=O)c(C3(F)CCOCC3)nc2n1)C1CCC(F)(F)CC1 [Compound 212]
Result :: 100 to 1000 nM

More entries:
Query :: // fetch IC50 given entry CCn1nccc1C(=O)N[C@H](c1cn2nc(C[C@H]3C[C@@H](C(F)(F)F)CNC3=O)c(CN3CCCC3C)nc2n1)C1CCC(F)(F)CC1 (some centres unmarked) [Compound 343]
Result :: > 1000 nM

Query :: // fetch IC50 given entry O=C(N[C@H](c1cn2nc(C[C@H]3C[C@@H](C(F)(F)F)CNC3=O)c(C3CCOCC3)nc2n1)C1CCC(F)(F)CC1)c1nonc1C(F)F [Compound 190]
Result :: > 1000 nM

Query :: // fetch IC50 given entry CCn1nccc1C(=O)N[C@H](c1cn2nc(C[C@H]3C[C@@H](C(F)(F)F)CNC3=O)c([C@@H]3CCNC3)nc2n1)C1CCC(F)(F)CC1 [Compound 284]
Result :: > 1000 nM

Query :: // fetch IC50 given entry CCn1nccc1C(=O)N[C@H](c1cn2nc(C[C@H]3C[C@@H](C(F)(F)F)CNC3=O)c(N3CCN(C)C(C4CC4)C3)nc2n1)C1CCC(F)(F)CC1 (single isomer, unassigned) [Compound 432]
Result :: 100 to 1000 nM

Query :: // fetch IC50 given entry CCn1nccc1C(=O)N[C@H](c1cn2nc(C[C@H]3C[C@@H](C(F)(F)F)CNC3=O)c(C3CCCOC3)nc2n1)[C@H]1CCCC(F)(F)C1 (single isomer, unassigned) [Compound 70]
Result :: < 100 nM

Query :: // fetch IC50 given entry O=C(N[C@H](c1cn2nc(C[C@H]3C[C@@H](C(F)(F)F)CNC3=O)c(C3CCOCC3)nc2n1)C1CCC(F)(F)CC1)OCc1cc(C(F)(F)F)on1 [Compound 183]
Result :: 100 to 1000 nM

Query :: // fetch IC50 given entry Cc1nocc1C(=O)N[C@H](c1cn2nc(C[C@H]3C[C@@H](C(F)(F)F)CNC3=O)c(C3CCOCC3)nc2n1)C1CCC(F)(F)CC1 [Compound 189]
Result :: 100 to 1000 nM

Query :: // fetch IC50 given entry CCn1nccc1C(=O)N[C@H](c1cn2nc(C[C@H]3C[C@@H](C(F)(F)F)CNC3=O)c(C3COCCN3C)nc2n1)C1CCC(F)(F)CC1 (single isomer, unassigned) [Compound 404]
Result :: > 1000 nM

Attribution: patent US20260226068A1
